Sourced from ChEMBL document CHEMBL4014306

- system-under-test: Short transient receptor potential channel 6 (Mus musculus)
- Sequence (Q61143 whole entry, the tested form may be a part): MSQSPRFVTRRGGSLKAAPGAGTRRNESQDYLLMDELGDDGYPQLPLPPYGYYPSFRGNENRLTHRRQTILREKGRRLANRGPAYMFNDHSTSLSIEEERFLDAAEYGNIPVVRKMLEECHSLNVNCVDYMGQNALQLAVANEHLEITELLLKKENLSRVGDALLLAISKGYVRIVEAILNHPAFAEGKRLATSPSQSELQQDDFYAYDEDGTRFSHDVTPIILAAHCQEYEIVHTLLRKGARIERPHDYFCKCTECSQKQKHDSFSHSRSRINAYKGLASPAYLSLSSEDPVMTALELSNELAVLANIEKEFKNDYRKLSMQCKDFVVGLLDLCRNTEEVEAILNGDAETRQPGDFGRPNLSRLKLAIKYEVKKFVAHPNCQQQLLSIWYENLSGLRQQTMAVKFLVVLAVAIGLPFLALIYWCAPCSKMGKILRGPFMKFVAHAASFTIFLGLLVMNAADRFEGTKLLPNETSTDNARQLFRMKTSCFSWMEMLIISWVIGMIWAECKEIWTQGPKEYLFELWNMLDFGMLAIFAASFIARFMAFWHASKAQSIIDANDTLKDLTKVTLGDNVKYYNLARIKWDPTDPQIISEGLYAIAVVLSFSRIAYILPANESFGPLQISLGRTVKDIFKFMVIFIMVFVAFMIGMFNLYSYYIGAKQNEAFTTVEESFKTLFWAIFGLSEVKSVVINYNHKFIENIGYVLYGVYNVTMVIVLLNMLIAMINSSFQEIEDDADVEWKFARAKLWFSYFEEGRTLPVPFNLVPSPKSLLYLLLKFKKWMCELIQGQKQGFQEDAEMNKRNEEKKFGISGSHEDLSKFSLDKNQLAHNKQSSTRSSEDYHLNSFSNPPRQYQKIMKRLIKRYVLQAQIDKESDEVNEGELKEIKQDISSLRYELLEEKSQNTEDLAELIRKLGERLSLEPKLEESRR
- experiment-description: Agonist activity at mouse TRPC6 expressed in HEK293 cells co-expressing Gq11-PLCbeta fused M5 receptor assessed as increase in intracellular calcium level by Fluo-4-AM dye-based fluorescence assay
- Assay type: cell-based
reported-metric: pEC50
Numbers only, as −log10 of the molar value.

Input "CCOC(=O)N1CCC(c2cc(O)n3nc(C)c(-c4ccc(F)cc4)c3n2)CC1" . Output pEC50: 5.14

###

- system-under-test: Short transient receptor potential channel 7 (Homo sapiens, UniProt Q9HCX4)
- Sequence (Q9HCX4 whole entry): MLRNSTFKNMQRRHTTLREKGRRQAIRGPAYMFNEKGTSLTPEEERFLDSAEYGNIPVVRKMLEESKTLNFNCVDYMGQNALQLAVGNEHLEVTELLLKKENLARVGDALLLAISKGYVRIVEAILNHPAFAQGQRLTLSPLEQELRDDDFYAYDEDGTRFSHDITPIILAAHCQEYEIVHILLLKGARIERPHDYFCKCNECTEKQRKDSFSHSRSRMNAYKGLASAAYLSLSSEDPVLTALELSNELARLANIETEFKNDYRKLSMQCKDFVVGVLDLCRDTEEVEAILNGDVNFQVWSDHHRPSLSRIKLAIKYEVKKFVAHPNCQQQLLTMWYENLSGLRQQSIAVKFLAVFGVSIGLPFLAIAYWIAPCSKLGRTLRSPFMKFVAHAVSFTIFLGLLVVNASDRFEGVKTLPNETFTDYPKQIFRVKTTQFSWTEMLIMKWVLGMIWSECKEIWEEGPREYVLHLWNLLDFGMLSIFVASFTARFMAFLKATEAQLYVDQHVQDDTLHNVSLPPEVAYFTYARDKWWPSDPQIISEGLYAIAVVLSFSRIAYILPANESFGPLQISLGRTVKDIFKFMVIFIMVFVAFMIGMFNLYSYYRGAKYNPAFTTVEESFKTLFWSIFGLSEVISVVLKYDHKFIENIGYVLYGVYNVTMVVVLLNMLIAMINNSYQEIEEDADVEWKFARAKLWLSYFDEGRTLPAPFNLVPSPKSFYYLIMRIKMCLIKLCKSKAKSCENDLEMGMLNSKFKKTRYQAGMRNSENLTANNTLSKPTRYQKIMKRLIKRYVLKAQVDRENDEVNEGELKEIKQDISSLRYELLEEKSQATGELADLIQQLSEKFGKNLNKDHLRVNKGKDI
- experiment-description: Agonist activity at human TRPC7 receptor expressed in HEK293 cells assessed as induction of channel current in presence of 0.1 mM Ca2+ by whole cell patch-clamp method
- Assay type: cell-based
reported-metric: EC50

Input "CCOC(=O)N1CCC(c2cc(O)n3nc(C)c(-c4ccc(F)cc4)c3n2)CC1" . Output EC50: 1130 nM

###

- system-under-test: UniProt:Q61143
- experiment-description: Agonist activity at mouse TRPC6 expressed in HEK293 cells co-expressing Gq11-PLCbeta fused M5 receptor assessed as induction of membrane potential depolarization measured for 2.5 mins by FLIPR assay
- Format: cell-based
reported-metric: pEC50
One number for each entry, as −log10 of the molar value.

Input "CCOC(=O)N1CCC(c2cc(O)n3nc(C)c(-c4ccc(F)cc4)c3n2)CC1" . Output pEC50: 5.85
